- Test system: OVCAR-4 ovarian
- Assay method text: NCI-60 one-dose screen, 48 h (100 = growth as untreated, 0 = no growth, -100 = all killed)
- Test conditions: 10 µM unless noted
- Experimental: Growth inhibition of the OVCAR-4 human tumor cell line is measured as a screen for anti-cancer activity. Cells are grown in 96 well plates and exposed to the test compound for 48 hours. Compounds are tested at a single concentration, which is 10^-5 M for most compounds. The reported endpoint is percent growth (GI% or GIPRCNT), where numbers from 0 - 100% represent growth inhibition, and numbers from -100% - 0 represent cell death. For example, a value of 40 represents 60% growth inhibition. […]
About 83,000 compounds went through this panel and 20% of them were active in at least one assay; those are over-represented in the sample as a whole.
Endpoint: growth (%)

> print(dat)
                                    compound    tested.system  unit.of.measurement  number
 1  O=S(=O)(Nc1cccc(-n2cnc3cc(-c4ccc(O)cc4)ccc32)c1)C1CC1  OVCAR-4 ovarian                    %    48.3
 2  CCCCCCCCOc1cccc(S(=O)(=O)Nc2ccc(C)cc2C(=O)O)c1  OVCAR-4 ovarian                    %    90.1
 3  COc1ccc(-c2ccnc(SCc3cc4cc(OC)ccc4[nH]c3=O)n2)cc1  OVCAR-4 ovarian                    %    43.3
 4   COc1ccc([C@H](C)Nc2nc(Cl)nc3ccccc23)cc1  OVCAR-4 ovarian                    %    62.9
 5  COc1ccc2[nH]cc(-c3nc(N)nnc3-c3cn(C)c4ncccc34)c2c1  OVCAR-4 ovarian                    %      78
 6  O=C(O)c1ccc(-c2ccc(/C=N/NC(=O)c3[nH]c4ccc(Br)cc4c3-c3ccccc3)o2)cc1  OVCAR-4 ovarian                    %      38
 7  O=C(Cn1c(/C=C/c2ccccc2)nc2ccccc2c1=O)Nc1ccccc1  OVCAR-4 ovarian                    %  -0.268
 8  CCCS(=O)(=O)N1CCCC(C(=O)Nc2nc3ccc(NC(=O)c4ccc(F)c(OC)c4F)cc3s2)C1 (configuration not stated)  OVCAR-4 ovarian                    %    32.3
 9  CN1CCN(/C(=N\c2sc(-c3ccccc3)nc2-c2ccccc2)c2ccccc2)CC1  OVCAR-4 ovarian                    %    89.4
10  CN(C)c1ccnc(CNCCSC2(c3ccc(C(F)(F)F)cc3)c3ccccc3CCc3ccccc32)c1  OVCAR-4 ovarian                    %    13.9
11  O=C(NNc1nc2cc(F)ccc2n2c(CN3CCCCC3)ccc12)c1cnccn1  OVCAR-4 ovarian                    %   -45.5
12  C/C(=N\N=C\c1cc([N+](=O)[O-])ccc1Cl)c1ccc2c(c1)Nc1ccccc1S2  OVCAR-4 ovarian                    %   -10.7
13  COc1ccc(-c2ccnc(SCc3cc4cc(Cl)ccc4[nH]c3=O)n2)cc1  OVCAR-4 ovarian                    %    10.1
14  COc1ccc(N2N=C(c3ccc4c(c3)OCO4)CC2c2cccc(NC(=O)CCCNS(=O)(=O)c3ccc(F)cc3)c2)cc1 (configuration not stated)  OVCAR-4 ovarian                    %    57.5
15  COc1cccc(/C=C/c2nc3ccccc3c(=O)n2CC(=O)Nc2ccc(Cl)cc2)c1  OVCAR-4 ovarian                    %   -11.4
16  COc1cc2c(c(OC)c1OC)C(=O)CC(c1cccc(NC(=O)c3cc(N)ccc3Cl)c1)O2 (configuration not stated)  OVCAR-4 ovarian                    %    52.7
17  CN(C)c1nc(NCCNS(=O)(=O)c2ccc(C(=O)/C=C/c3ccc(F)cc3)cc2)nc(Nc2ccc(F)cc2)n1  OVCAR-4 ovarian                    %     -82
18  Cn1cc(-c2cc(N)n3nc(-c4c[nH]c5ccccc45)cc3n2)c2cc(Br)cnc21  OVCAR-4 ovarian                    %    5.89
19  O=C(c1ccccc1)C(c1c[nH]c2ccccc12)c1c[nH]c2ccccc12  OVCAR-4 ovarian                    %    51.5
20  O=C1Nc2cc(Cl)ccc2/C1=C/c1cccc(OCc2ccccn2)c1  OVCAR-4 ovarian                    %    49.1
21  COc1c(F)ccc(C(=O)Nc2ccc3nc(NC(=O)C4CCCN(S(=O)(=O)c5ccc(Br)s5)C4)sc3c2)c1F (configuration not stated)  OVCAR-4 ovarian                    %    67.9
22  COc1cc2oc(-c3cccc(C(=O)Nc4ccc(Cl)cc4)c3)cc(=O)c2c(OCCNC(=O)[C@H](CO)NC(=O)OC(C)(C)C)c1OC  OVCAR-4 ovarian                    %    36.4
23  COc1ccc(C(=O)/C=C/c2ccc(OC)c(OCc3ccccc3)c2)cc1OC  OVCAR-4 ovarian                    %    30.1
24  CN1CCN(c2ccc3c(c2)nc(NNC(=O)c2ncccn2)c2cccn23)CC1  OVCAR-4 ovarian                    %   -41.7
25  CCOC(=O)COc1c(OC)c(OC)cc2oc(-c3cccc(C(=O)Nc4ccc(Cl)cc4)c3)cc(=O)c12  OVCAR-4 ovarian                    %    68.8
26  O=C(CN1C(=O)/C(=C/c2ccccc2F)SC1=S)N1CCOCC1  OVCAR-4 ovarian                    %    73.7
27  N/C(=N\c1nc2ccccc2s1)NC(=O)Nc1c(Cl)cccc1Cl  OVCAR-4 ovarian                    %    56.7
28  COc1ccc(C(=O)/C=C/c2c(F)cccc2Cl)cc1S(N)(=O)=O  OVCAR-4 ovarian                    %    42.9
29  C#CCOc1cc(N(CC)CC)ccc1C(C(=O)NC(C)(C)C)N(C(=O)C1CCc2cc(F)ccc2O1)c1ccc(F)cc1 (configuration not stated)  OVCAR-4 ovarian                    %      51
30  Cc1ccc([C@H]2C(C(=O)c3ccc(Cl)cc3)C3(N[C@@H]2c2ccccc2)C(=O)Nc2ccccc23)cc1 (some centres not stated)  OVCAR-4 ovarian                    %    49.4
31  CC(=O)c1cccc(NC(=O)CCC(=O)NS(=O)(=O)c2ccc(C)cc2)c1  OVCAR-4 ovarian                    %     118
32  CCOC(=O)C1=C(N)N(c2ccccc2)C2=C(C(=O)CC(C)(C)C2)C1c1cccc(Cl)c1Cl (configuration not stated)  OVCAR-4 ovarian                    %    65.8
33  COC(=O)C[C@](O)(CCCC(C)(C)O)C(=O)O[C@H]1C(OC)=C[C@@]23CCCN2CCc2cc4c(cc2[C@@H]13)OCO4  OVCAR-4 ovarian                    %   -13.9
34   Cc1cc2nc3c4ccccc4n(CCNCCN(C)C)c3nc2cc1C  OVCAR-4 ovarian                    %      33
35  Cc1cc(=O)oc2cc(OCCCCOc3ccc(/C=C/C(=O)Nc4ccccc4N)cc3)ccc12  OVCAR-4 ovarian                    %    73.1
36  COc1cc2oc(-c3cccc(C(=O)Nc4cccc([N+](=O)[O-])c4)c3)cc(=O)c2c(OC)c1OC  OVCAR-4 ovarian                    %   -6.32
37  CC(=O)Nc1ccc(-c2nc3cc(-c4ccc(O)cc4)ccc3n2C)cc1  OVCAR-4 ovarian                    %    54.5

###

- Test system: ACHN renal
- Assay method text: NCI-60 one-dose screen, 48 h (100 = growth as untreated, 0 = no growth, -100 = all killed)
- Test conditions: 10 µM unless noted
- Procedure: Growth inhibition of the ACHN human tumor cell line is measured as a screen for anti-cancer activity. Cells are grown in 96 well plates and exposed to the test compound for 48 hours. Compounds are tested at a single concentration, which is 10^-5 M for most compounds. The reported endpoint is percent growth (GI% or GIPRCNT), where numbers from 0 - 100% represent growth inhibition, and numbers from -100% - 0 represent cell death. For example, a value of 40 represents 60% growth inhibition. […]
This is part of a sample that, as a whole, favours compounds with a hit. Of some 83,000 tested, about 20% had one in any assay.
Use Fulfilled when the recorded growth is no lower than 70%; use Not fulfilled when it is lower.

> print(dat)
                                   compound          class
1  NS(=O)(=O)c1ccc(N=Nc2c(O)n(CC(=O)Nc3ccccc3)c3ccccc23)cc1  Not fulfilled
2        O=C1CCCc2cc(OCC(=O)N3CCCCC3)ccc2N1      Fulfilled
3  O=C(Nc1ccc(C(F)(F)F)cc1)Nc1ccc2oc(=O)ccc2c1  Not fulfilled
4  CC1=C(C(=O)OC(C)C)C(c2cccc(O)c2)NC(=S)N1 (stereo not given)      Fulfilled
5    Clc1cccc(N/N=C/c2c[nH]c3ccc(Br)cc23)n1  Not fulfilled
6  CC(=O)/C=C/c1cccc2c1C(=O)NC(C)(c1cc3cc(Br)ccc3oc1=O)N2 (stereo not given)  Not fulfilled
7  CSc1ccc(NC(=O)c2ccc3nn(/C(C#N)=C/c4ccccn4)nc3c2)cc1  Not fulfilled
8   CCCCNC(=S)Nc1ccc(OCc2nc3ccccc3[nH]2)cc1  Not fulfilled
9  Nc1nc(-c2ccccc2)c(N=Nc2ccc([N+](=O)[O-])cc2Cl)s1      Fulfilled
